System: PD1-ss+10aa/Gaussia Luciferase
Experiment: Dox-Induced PD1-ss-Gluc Assay
Type: cell-based
Settings: Flp-In 293 T-REx cells, 24 hours with doxycycline; Table 3; read-out: 24 hr Dox Inducible PD1ssGluc 293FRT/TO: Mean IC50
Description: Flp-In 293 T-REx™ cells were transfected with pcDNA™5/FRT/TO plasmid inserted with cDNA encoding Gaussia Luciferase fused to the 3′ end of cDNA encoding PD1 signal sequence plus 10 amino acids (N-[…]-C) (SEQ ID NO: 1). Transfected cells were selected for resistance to the selectable markers Hygromycin and Blasticidin to create a stable cell line that contained the PD1-ss+10aa/Gaussia Luciferase cDNA insert whose expression was regulated under the T-REx™ system. […]
quantityName: IC50 (nM)

C/C(=C\c1cn(C(C)C)cn1)c1csc(NC(=O)c2cccn2Cc2ccncc2)n1 = 404

(a) O=C(Nc1nc(/C=C/c2ccc(C(F)(F)F)cn2)cs1)c1cccn1Cc1ccnc(F)c1
(b) O=C(Nc1nc(/C=C/C2CCCC2)cs1)c1cccn1Cc1ccnc(F)c1
(c) C/C(=C\c1ccc(C)c(F)n1)c1csc(NC(=O)c2cccn2Cc2ccnc(F)c2)n1
Order the entries by their reported IC50, beginning at the minimum. API: response body holds the labels in the requested order. a, c, b

(a) O=C(Nc1nc(/C=C/[C@H]2CC[C@@H](C(F)(F)F)CC2)cs1)c1cccn1Cc1ccncc1
(b) O=C(Nc1nc(/C=C/c2ccc(OC(F)F)cn2)cs1)c1cccn1Cc1ccnc(F)c1
(c) O=C(Nc1nc(/C=C/c2ccc(Cl)cn2)cs1)c1cccn1Cc1ccnc(F)c1
(d) C/C(=C\c1cn(C(C)C)cn1)c1csc(NC(=O)c2cccn2Cc2ccnc(F)c2)n1
Rank order required: IC50, descending. List the labels in the requested order. d, a, c, b
(d: 540 nM, a: 161 nM, c: 24 nM, b: 13 nM)

(P) O=C(Nc1nc(/C=C/c2ncn(C3CC3)c2Cl)cs1)c1cc(Cl)cn1Cc1ccnc(F)c1
(Q) O=C(Nc1nc(/C=C/[C@H]2CC[C@H](C(F)(F)F)CC2)cs1)c1cccn1Cc1ccncc1
Given the two records P and Q , choose the one whose IC50 value is lower. Respond using the label that marks the chosen record. P
(P: 11 nM, Q: 41 nM)

(1) O=C1CCn2cc(/C=C/c3csc(NC(=O)c4cccn4Cc4ccnc(F)c4)n3)nc2N1
(2) O=C(Nc1nc(/C=C/c2ccc(OC3CC3)cc2F)cs1)c1cccn1Cc1ccnc(F)c1
Hey, which is lower on measured IC50, 1 or 2 ? Your answer should be the label attached to the chosen record. 2
